assay: chemical genetic growth profiling, strain panel (AID 1159580);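 note: tested at 20 µM; growth read once vehicle control cultures reached saturation at 30 °C; 1 = growth at the plate median or of vehicle wells; lower values mean less growth of the strain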; details: S. cerevisiae deletion strains, growth OD, locus YPL106C, strain sse1, stronger effect = lower value
The whole screen tested about 5,500 compounds, of which about 2,000 (36%) were called active. Not shown: some 18% with an inconclusive outcome. This is one part of the list.
So basically, if normalized growth comes in under 1 it's y, and if it's 1 or more it's n.

# example entries with known answers
# COMPOUND, QUALITATIVE_LABEL
rows = [
    ("CC1(C)C(=O)C=C[C@@]2(C)C1=C(O)C(=O)[C@]1(C)C2CC[C@@]2(C)[C@H](c3ccoc3)C[C@H]3O[C@]321 (stereo partly specified)", "y"),
    ("O=C(O)CCCCC1CCSS1 (stereo unspecified)", "y"),
    ("Oc1ccc(Cl)c2cccnc12", "y"),
]

Proceed to the following item.
Determine if C=CC(C1=CC(=O)C(OC)=CC1=O)c1ccccc1 (stereo unspecified) shows normalized growth strictly lower than 1.
n

---

test: chemical genetic growth profiling, strain panel (AID 1159580);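 note: tested at 20 µM; growth read once vehicle control cultures reached saturation at 30 °C; 1 = growth at the plate median or of vehicle wells; lower values mean less growth of the strain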; details: S. cerevisiae deletion strains, growth OD, locus YOR083W, strain WHI5 (second series), stronger effect = lower value
About 2,000 (36%) of roughly 5,500 compounds were called active. Another 18% or so got no clear call; they are omitted. The list shows a part of the results.
READOUT: normalized growth
Lab note: write the figure by itself, no unit.

Worked examples follow.
# MOLECULE, MEASURED_VALUE
data = [
    ("O=S(=O)(O)C1CCNCC1", 0.993),
    ("NC1C=CC=C(C(=O)O)C1 (stereo not given)", 0.986),
    ("OC[C@H]1O[C@@H](n2cnc3c(NCCc4ccccc4)ncnc32)C(O)[C@H]1O (stereo not given in full)", 0.997),
]

Form field: reported normalized growth of O=C(CCNNC(=O)c1ccncc1)NCc1ccccc1
1

Do the same for Clc1ccc(N2CC3CCC(C2)N3)nn1 please
0.959

---

assay: chemical genetic growth profiling, strain panel (AID 1159580);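 note: tested at 20 µM; growth read once vehicle control cultures reached saturation at 30 °C; 1 = growth at the plate median or of vehicle wells; lower values mean less growth of the strain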; conditions: S. cerevisiae deletion strains, growth OD, locus YEL037C, strain rad23
Out of some 5,500 compounds screened, about 2,000 (36%) were called active. Roughly 18% stayed inconclusive and do not appear here. Cut-off read from the data, not from the text of the source: active = normalized growth mostly below about 0.91 (no sharp cut-off); inconclusive = no clear call, values can overlap the other calls; inactive = mostly above about 0.92. Some of the results follow.
Reply using exactly one outcome from 1 for active, -1 for inactive

# MOLECULE, QUALITATIVE_LABEL
data = [
    ("CC(=O)c1c(O)c(C)c(O)c2c1OC1=CC(=O)C(C(C)=O)C(=O)C12C (stereo not drawn)", -1),
]

Please share the test call associated with C[n+]1cccc(C(=O)[O-])c1 .
-1

Field entry: CCOP(=S)(OCC)SCn1c(=O)oc2cc(Cl)ccc21
-1

---

test: chemical genetic growth profiling, strain panel (AID 1159580);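 note: tested at 20 µM; growth read once vehicle control cultures reached saturation at 30 °C; 1 = growth at the plate median or of vehicle wells; lower values mean less growth of the strain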; conditions: S. cerevisiae deletion strains, growth OD, locus YOR070C, strain gyp1, stronger effect = lower value
Out of some 5,500 compounds screened, about 2,000 (36%) were called active. Roughly 18% stayed inconclusive and do not appear here. The list shows a part of the results.
READOUT: normalized growth

Solved cases (4 shown):
# COMPOUND, MEASURED_VALUE
data = [
    ("CC(=O)O[C@H]1C[C@@H](OC(C)=O)C(C)(C)C2C[C@@H](OC(C)=O)[C@@]3(C)C4=CC(=O)O[C@@H](c5ccoc5)[C@]4(C)CCC3[C@]21C (stereo partly drawn)", "1.01 (inactive)"),
    ("O=C(OC1Cc2c(O)cc(O)cc2OC1c1cc(O)c(O)c(O)c1-c1c(C2Oc3cc(O)cc(O)c3CC2OC(=O)c2cc(O)c(O)c(O)c2)cc(O)c(O)c1O)c1cc(O)c(O)c(O)c1 (stereo not drawn)", "0.975 (inactive)"),
    ("C[n+]1cccc(C(=O)[O-])c1", "0.987 (inactive)"),
    ("CCOC(=O)c1oc2c(OC)c(O)cc(O)c2c(=O)c1-c1cc(OC)c(OC)c(OC)c1", "0.973 (inactive)"),
]

Fill in the blank: the reported normalized growth of CC(=O)Nc1cc([As](=O)(O)O)ccc1O is ____.
1 (inactive)

Quick one: COC(=O)C[C@H]1C(C)(C)C(=O)[C@@H]2CC3=C4CC(=O)O[C@@H](c5ccoc5)[C@]4(C)CCC3[C@@]1(C)C2=O (stereo partly drawn)
0.991 (inactive)

# repeat for COc1cc(OC)c2c(=O)c(-c3ccccc3)c(C)oc2c1OC
0.987 (inactive)

How about O=[N+]([O-])c1ccc(O)c([N+](=O)[O-])c1 ?
0.836 (active)
